Reported log10 IC50 values for the following compounds.
- target_under_test: E. coli GroEL/ES (Escherichia coli)
- Construct: made in house; host or cells: GroEL in E. coli DH5α; GroES in E. coli BL21 (DE3)
- Sequence (P0A6F5 2-548): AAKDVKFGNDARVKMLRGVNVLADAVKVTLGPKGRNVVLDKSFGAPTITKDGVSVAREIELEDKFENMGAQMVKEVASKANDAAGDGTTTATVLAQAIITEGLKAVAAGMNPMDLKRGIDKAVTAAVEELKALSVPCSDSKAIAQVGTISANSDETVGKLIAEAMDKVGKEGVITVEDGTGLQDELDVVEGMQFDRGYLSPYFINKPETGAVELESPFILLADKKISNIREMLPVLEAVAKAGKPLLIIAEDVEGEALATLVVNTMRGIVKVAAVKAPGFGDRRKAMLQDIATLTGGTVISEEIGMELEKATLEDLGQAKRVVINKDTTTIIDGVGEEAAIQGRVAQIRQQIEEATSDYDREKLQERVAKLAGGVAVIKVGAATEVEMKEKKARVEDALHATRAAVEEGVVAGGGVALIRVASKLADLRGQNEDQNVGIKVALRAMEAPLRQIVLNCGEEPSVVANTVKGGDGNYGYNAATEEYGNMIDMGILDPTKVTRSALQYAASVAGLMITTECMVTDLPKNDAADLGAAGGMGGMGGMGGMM
- experimental_details: GroEL/ES-mediated dMDH refolding assay
- Assay type: biochemical
- measurement_setup: read-out: Biochemical Assay IC50 GroEL/ES-dMDH refolding
experimental_endpoint: log10 IC50 (log10 of the value in µM)

- compound: "O=C(Nc1cccc(Cl)c1)c1cc(Br)cc(Br)c1O"
  log10 IC50: 1.38
- compound: "Cc1cc(C(C#N)c2ccc(Cl)cc2)c(Cl)cc1NC(=O)c1cc(I)cc(I)c1O (centres unmarked) [Closantel, closantel, reference compound]"
  log10 IC50: 0.34
- compound: "O=C(Nc1ccccc1)c1cc(Br)cc(Br)c1O [Compound 13, 3,5-Dibromo-2-hydroxy-N-phenylbenzamide]"
  log10 IC50: 1.79
- compound: "O=C(Nc1ccc(Sc2nc3ccccc3s2)cc1)c1cc(Br)cc(Br)c1O"
  log10 IC50: 0.43
- compound: "O=C(Nc1ccc(Sc2nc3ccccc3s2)cc1)c1ccccc1O"
  log10 IC50: 1.60
- compound: "O=C(Nc1ccc(Sc2nc3ccccc3s2)c(Cl)c1)c1ccccc1O"
  log10 IC50: 1.62
- compound: "O=C(Nc1ccc(Oc2ccc(Cl)cc2)c(Cl)c1)c1cc(I)cc(I)c1O [Rafoxanide, rafoxanide, reference compound]"
  log10 IC50: 0.63
- compound: "O=C(Nc1ccc(Sc2nc3ccccc3s2)cc1)c1cccc(Br)c1O"
  log10 IC50: 1.52
- compound: "O=C(Nc1ccc(Sc2nc3ccccc3s2)cc1)c1cc(Br)ccc1O"
  log10 IC50: 1.58
- compound: "O=C(Nc1ccc(Sc2nc3ccccc3s2)c(Cl)c1)c1cccc(Br)c1O"
  log10 IC50: 0.98
- compound: "O=C(Nc1ccc(Sc2nc3ccccc3s2)c(Cl)c1)c1cc(Br)ccc1O"
  log10 IC50: 1.57
- compound: "O=C(Nc1ccc(Sc2nc3ccccc3s2)c(Cl)c1)c1cc(Br)cc(Br)c1O"
  log10 IC50: 0.23
